Assay: qHTS of pediatric cancer cell lines to identify multiple opportunities for drug repurposing: Primary screen for SK-N-SH cells (AID 1347098); note: nearly all actives have a fitted effect of over 65% in size
Details: SK-N-SH viability, CellTiter-Glo luminescence, 48 h; series mostly up to 57 µM
Records with an inconclusive call do not appear. Calls of active or inactive are those of the source. Calls come from the whole dose curve; as a rule, active = well fitted cell-killing curve with a large enough effect; inconclusive = small, poorly fitted or top-dose-only effect; inactive = no such curve, though single readings can be large or run the other way. Starred links: 1 amine or outer side, 2 acyl side, 3 side chain; linkers in the order of their positions; H or OH if unused. Positions of bridges follow the written chain, without caps; N, C: chain ends. Non-standard residues stand in square brackets, D forms with d. Residues, ends and D or L forms follow the SMILES beside them. Chains are numbered I, II in the order given. Actinocin(9to1) = Cc1c2oc3c(C)ccc(C(=O)[*:1])c3nc-2c(C(=O)[*:2])c(N)c1=O; NMeV = CN[CH](C(=O)O)C(C)C; Sar = CNCC(=O)O
Outcome codes: active, inactive

[
  {
    "compound": "CN(C)CC(=O)N1CCC(c2ccc(NC(=O)c3ncc(C#N)[nH]3)c(C3=CCCCC3)c2)CC1",
    "label.value": "active"
  },
  {
    "compound": "CC(C)N1[N]C(=C2C=c3cc(O)ccc3=N2)c2c(N)ncnc21",
    "label.value": "active"
  },
  {
    "compound": "O=C(NC1CC1)c1cccc(-c2ccc3c(NC(=O)C4CC4)n[nH]c3c2)c1",
    "label.value": "active"
  },
  {
    "compound": "O=C(C=CC#Cc1cccc(NS(=O)(=O)c2ccccc2)c1)NO",
    "label.value": "active"
  },
  {
    "compound": "Cc1cc(Nc2ncc3c(n2)N(C)C(=O)N(c2cc(NC(=O)c4cccc(C(F)(F)F)c4)ccc2C)C3)n(C)n1",
    "label.value": "active"
  },
  {
    "compound": "Cc1cnc(Nc2ccc(N3CCN(C)CC3)cc2)nc1Nc1cccc(S(=O)(=O)NC(C)(C)C)c1",
    "label.value": "active"
  },
  {
    "compound": "C=C1C[C@@]2(O)O[C@@]3(C[C@H]2C(C)C)[C@H](C)CC[C@H]13",
    "label.value": "inactive"
  },
  {
    "compound": "Cc1onc(-c2ccccc2)c1C(=O)N[C@@H]1C(=O)N2[C@@H](C(=O)O)C(C)(C)S[C@@H]12",
    "label.value": "inactive"
  },
  {
    "compound": "COc1ccc(C=Cc2cc(OC)c(OC)c(OC)c2)cc1NC(=O)[C@H](N)CO",
    "label.value": "inactive"
  },
  {
    "compound": "NC(=O)Nc1cc(-c2ccc(CN3CCOCC3)cc2)sc1C(N)=O",
    "label.value": "active"
  },
  {
    "compound": "CC(C)NC[C@@H](C(=O)N1CCN(c2ncnc3c2[C@H](C)C[C@H]3O)CC1)c1ccc(Cl)cc1",
    "label.value": "active"
  },
  {
    "compound": "C[C@H](CCC(=O)O)[C@H]1CC[C@H]2[C@@H]3[C@H](O)C[C@@H]4C[C@H](O)CC[C@]4(C)[C@@H]3CC[C@]12C",
    "label.value": "inactive"
  },
  {
    "compound": "CCC(C=C[C@@H]1OC(=O)C=C[C@H]1C)=C[C@H](C)CC=CC(C)=C[C@@H](C)C(=O)[C@@H](C)[C@H](O)[C@@H](C)CC(C)=CC(=O)O",
    "label.value": "active"
  },
  {
    "compound": "CC(=O)O[C@H]1C[C@@H]2CC[C@H]3[C@H]4C[C@H]([N+]5(C)CCCCC5)[C@@H](OC(C)=O)[C@@]4(C)CC[C@@H]3[C@@]2(C)C[C@H]1N1CCCCC1",
    "label.value": "inactive"
  },
  {
    "compound": "C[C@H](CCC(=O)O)[C@H]1CCC2C3C[C@H](O)[C@@H]4C[C@H](O)CC[C@]4(C)C3CC[C@@]21C (some centres undefined)",
    "label.value": "inactive"
  },
  {
    "compound": "O=C(Nc1nnc(-c2ccco2)o1)c1cc(-c2ccccc2)nc2ccccc12",
    "label.value": "active"
  },
  {
    "compound": "C[C@H](NCc1ccc(OCc2cccc(F)c2)cc1)C(N)=O",
    "label.value": "active"
  },
  {
    "compound": "Cc1c2oc3c(C)ccc(C(=O)NC4C(=O)NC(C(C)C)C(=O)N5CCCC5C(=O)N(C)CC(=O)N(C)C(C(C)C)C(=O)OC4C)c3nc-2c(C(=O)NC2C(=O)NC(C(C)C)C(=O)N3CCCC3C(=O)N(C)CC(=O)N(C)C(C(C)C)C(=O)OC2C)c(N)c1=O (centres undefined) (I: TVP[Sar][NMeV] / II: TVP[Sar][NMeV]; ester I:1-I:C, II:1-II:C; linker I:N-II:N via Actinocin(9to1); configuration not given here)",
    "label.value": "active"
  },
  {
    "compound": "OC[C@@H](O)[C@@H](O)[C@H](O)[C@@H](O)CO",
    "label.value": "inactive"
  },
  {
    "compound": "OCCN1C[C@H](O)[C@@H](O)[C@H](O)[C@@H]1CO",
    "label.value": "inactive"
  },
  {
    "compound": "C[C@H](NCc1ccc2c(c1)nc(NC(=O)c1ccc(-c3cn[nH]c3)s1)n2CCc1ccccc1)C(C)(C)C",
    "label.value": "active"
  },
  {
    "compound": "COc1cc(OC)c(NC(=O)Nc2cc(C)on2)cc1Cl",
    "label.value": "inactive"
  },
  {
    "compound": "CN[C@H]1[C@@H](O)[C@@H]2O[C@@H]3O[C@H](C)CC(=O)[C@]3(O)O[C@@H]2[C@@H](NC)[C@H]1O",
    "label.value": "active"
  },
  {
    "compound": "COc1cc(C)c(Sc2cnc(NC(=O)c3ccc(CNC(C)C(C)(C)C)cc3)s2)cc1C(=O)N1CCN(C(C)=O)CC1 (centres undefined)",
    "label.value": "active"
  },
  {
    "compound": "CC(=O)OCC(=O)[C@@]1(O)CC[C@H]2[C@@H]3CCC4=CC(=O)CC[C@]4(C)[C@@H]3C(=O)C[C@@]21C",
    "label.value": "inactive"
  },
  {
    "compound": "COC(=O)[C@@H]1CC2=CC(=O)CC[C@]2(C)[C@@]23O[C@@H]2C[C@@]2(C)[C@H](CC[C@@]24CCC(=O)O4)[C@@H]13",
    "label.value": "inactive"
  },
  {
    "compound": "O=C(C[C@@H]1CC=CCCC(=O)O[C@H](c2ccccc2)CNC1=O)NCc1ccc(Cl)cc1",
    "label.value": "inactive"
  },
  {
    "compound": "CC(=O)NC(CS)C(=O)O (centres undefined)",
    "label.value": "inactive"
  },
  {
    "compound": "CCCNS(=O)(=O)Nc1ncnc(OCCOc2ncc(Br)cn2)c1-c1ccc(Br)cc1",
    "label.value": "inactive"
  },
  {
    "compound": "CCN(CC)Cc1ccc2cc(COC(=O)Nc3ccc(C(=O)NO)cc3)ccc2c1",
    "label.value": "active"
  },
  {
    "compound": "O=C1NC(O)CCN1[C@@H]1O[C@H](CO)[C@H](O)[C@H]1O (some centres undefined)",
    "label.value": "inactive"
  },
  {
    "compound": "COc1cc(C(C)C)c(Oc2cnc(NC(CO)CO)nc2N)cc1I",
    "label.value": "active"
  },
  {
    "compound": "Nc1ccn(C[C@@H](CO)OCP(=O)(O)O)c(=O)n1",
    "label.value": "inactive"
  },
  {
    "compound": "CN(N=O)C(=O)N[C@H]1C(O)OC(CO)[C@@H](O)[C@H]1O (some centres undefined)",
    "label.value": "inactive"
  }
]

###

Tested on: C33A
Test: Primary qHTS to identify gynecologic anti-cancer compounds using libraries of approved drugs and bioactive compounds (AID 1345084); note: nearly all actives have a fitted effect of over 55% in size
Details: Gynecologic cancer cell panel viability, ATPlite luminescence, 48 h; series mostly up to 57.5 µM
Inconclusive results are not listed. The source made the active and inactive calls. The call rests on the fitted dose curve; in most records, active means well fitted cell-killing curve with a large enough effect; inconclusive means small, poorly fitted or top-dose-only effect, or effect the other way; inactive means flat fitted curve, though single readings scatter.
Outcome codes: active, inactive

[
  {
    "compound": "CC(C)n1cnc2c(NCCc3ccc(O)cc3)nc(-c3csc4ccccc34)nc21",
    "label.value": "inactive"
  },
  {
    "compound": "CC1(C)O[C@@H]2C[C@H]3[C@@H]4CCC5=CC(=O)C=C[C@]5(C)[C@@H]4[C@@H](O)C[C@]3(C)[C@]2(C(=O)CO)O1",
    "label.value": "inactive"
  },
  {
    "compound": "CCn1c(=O)c2c(nc(C=Cc3ccc(OC)c(OC)c3)n2C)n(CC)c1=O",
    "label.value": "inactive"
  },
  {
    "compound": "Nc1ccn(C2CO[C@H](CO)O2)c(=O)n1 (some centres undefined)",
    "label.value": "inactive"
  },
  {
    "compound": "Cn1cnc2c(F)c(Nc3ccc(Br)cc3F)c(C(=O)NOCCO)cc21",
    "label.value": "inactive"
  },
  {
    "compound": "CCCCC(=O)O[C@]1(C(=O)CO)[C@@H](C)C[C@H]2[C@@H]3CCC4=CC(=O)C=C[C@]4(C)[C@@]3(F)[C@@H](O)C[C@@]21C",
    "label.value": "inactive"
  },
  {
    "compound": "O=C(Nc1cc2cc[nH]c2cn1)c1ccccc1",
    "label.value": "active"
  },
  {
    "compound": "CCC[C@H]1C[C@H](C(=O)N[C@@H]([C@@H]2O[C@@H](SC)[C@@H](O)[C@@H](O)[C@@H]2O)[C@H](C)Cl)N(C)C1",
    "label.value": "inactive"
  },
  {
    "compound": "CC(C)(N)c1ccc(-c2nc3ccccc3nc2-c2ccccc2)cc1",
    "label.value": "inactive"
  }
]
